# maps each entry to its pIC50
- Tested on: MKN-45
- assay.remarks: Antiproliferative activity against human MKN45 cells after 72 hrs by MTT assay
- Assay type: functional, cell-based
- condition.parameters: MKN-45, 72 h
Hey, just a heads up that pIC50 is the negative log base 10 of the concentration in molar.

As a guide, the following entries are already answered.
COc1ccc(NC(=O)COc2ccc3c(c2)NC(=O)CC3)cc1 ... 4.44
O=C(COc1ccc2c(c1)NC(=O)CC2)Nc1ccc(F)cc1 ... 4.41
O=C(COc1ccc2c(c1)NC(=O)CC2)Nc1ccc2ccccc2c1 ... 4.57
O=C(COc1ccc2c(c1)NC(=O)CC2)Nc1ccc(-c2ccccc2)cc1 ... 4.49

// next item, pIC50 requested
IN: Need pIC50 of O=C(COc1ccc2c(c1)NC(=O)CC2)Nc1ccccc1 , thanks.
OUT: 4.49

====

# maps each entry to its pIC50
- Test system: NCI-H661
- assay.remarks: Antiproliferative activity against human NCI-H661 cells after 72 hrs by MTT assay
- Type: functional, cell-based
- condition.parameters: NCI-H661, 72 h
Hey, just a heads up that pIC50 is the negative log base 10 of the concentration in molar.

As a guide, the following entries are already answered.
O=C(COc1ccc2c(c1)NC(=O)CC2)Nc1ccccc1 ... 4.66
COc1ccc(NC(=O)COc2ccc3c(c2)NC(=O)CC3)cc1 ... 4.79
O=C(COc1ccc2c(c1)NC(=O)CC2)Nc1ccc(F)cc1 ... 4.82

IN: Need pIC50 of O=C(COc1ccc2c(c1)NC(=O)CC2)Nc1ccc(-c2ccccc2)cc1 , thanks.
OUT: 4.81

IN: And O=C(COc1ccc2c(c1)NC(=O)CC2)Nc1ccc2ccccc2c1 ?
OUT: 4.95
